- MEASUREMENT TARGET: Adenosine receptor A2a (Bos taurus)
- PROTOCOL SUMMARY: biochemical
Measured Ki, listed per entry for reference.

SMILES INPUT | MEASUREMENT TARGET | Ki
Cc1ccc2c(N=[N+]=[N-])cc(-c3ccccc3)nc2n1 | Adenosine receptor A2a (Bos taurus) | > 10 µM
CCOc1ccc2c(O)cc(-c3ccccc3)nc2n1 | Adenosine receptor A2a (Bos taurus) | > 10 µM
Cc1ccc2c(Cl)cc(-c3ccccc3)nc2n1 | Adenosine receptor A2a (Bos taurus) | > 10 µM

====

pKi: −log10 of the molar value.
Hi! I'm sharing some pKi results obtained with UniProt:P28647.
Sequence (P28647 whole entry): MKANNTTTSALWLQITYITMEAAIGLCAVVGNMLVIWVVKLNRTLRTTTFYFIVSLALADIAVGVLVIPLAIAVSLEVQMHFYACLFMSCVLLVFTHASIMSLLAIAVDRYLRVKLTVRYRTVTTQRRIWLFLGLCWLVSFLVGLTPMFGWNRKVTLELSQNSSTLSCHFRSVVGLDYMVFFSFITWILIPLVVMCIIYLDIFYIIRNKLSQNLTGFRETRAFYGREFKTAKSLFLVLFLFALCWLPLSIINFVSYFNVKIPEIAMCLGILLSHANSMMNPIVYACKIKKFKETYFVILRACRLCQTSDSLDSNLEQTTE

SMILES INPUT | MEASUREMENT TARGET | pKi
Oc1cc(-c2ccccc2)nc2nc(Oc3ccccc3)ccc12 | UniProt:P28647 | < 5.00
Cc1ccc2c(S)cc(-c3ccccc3)nc2n1 | UniProt:P28647 | < 5.00
Cc1ccc2c(NN)cc(-c3ccccc3)nc2n1 | UniProt:P28647 | < 5.00
